study system: Cytochrome P450 3A4 (Homo sapiens)
measurement notes: qHTS Assay for Activators of Cytochrome P450 3A4 (AID 885); note: nearly all actives have a fitted effect of over 65% in size
experimental context: recombinant CYP3A4, Luciferin-PPXE luminescence, 60 min; series mostly up to 57.1 µM
The source made the active and inactive calls. Calls come from the whole dose curve; as a rule, active = well fitted activation curve with a large enough effect; inconclusive = small, poorly fitted or top-dose-only effect; inactive = no such curve, though single readings can be large or run the other way.
// classify into active, inactive

Consider the worked cases shown below.
compound: C[C@@](Cc1ccc(O)c(O)c1)(NN)C(=O)O
study system: Cytochrome P450 3A4 (Homo sapiens)
class: inactive
//
compound: Nc1ccc(N=Nc2ccccc2)c(N)n1
study system: Cytochrome P450 3A4 (Homo sapiens)
class: inactive
//
compound: O=C(CCCCCCCCCCCCC1CCCC1)Nc1ccc(S(=O)(=O)c2ccc(NC(=O)CCCCCCCCCCCCC3CCCC3)cc2)cc1
study system: Cytochrome P450 3A4 (Homo sapiens)
class: inactive
//
compound: CCSc1ccc2c(c1)N(CCCN1CCN(C)CC1)c1ccccc1S2
study system: Cytochrome P450 3A4 (Homo sapiens)
class: inactive
//
compound: CC(=O)[C@H]1CC[C@H]2[C@@H]3C=CC4=CC(=O)CC[C@@]4(C)[C@H]3CC[C@]12C
study system: Cytochrome P450 3A4 (Homo sapiens)
class: active

Lab log entry: CC(C)c1nc(N(C)S(C)(=O)=O)nc(-c2ccc(F)cc2)c1/C=C/C(O)CC(O)CC(=O)O (centres undefined) — outcome as called in the assay? inactive

Lab log entry: C=C1C(CCl)(CCl)C2(Cl)C(Cl)C(Cl)C1(Cl)C2(Cl)Cl (centres undefined) — outcome as called in the assay? inactive

Lab log entry: "CC(C)(C)CC(C)(C)c1ccc(OCCO)cc1" — outcome as called in the assay? inactive

Lab log entry: "Cc1cc(C)c(NC(=O)C[C@H](CC(=O)O)c2cccc3ccccc23)c(C(=O)N2CCC3(CCCC3)CC2)c1" — outcome as called in the assay? inactive

* * *

study system: Voltage-gated inwardly rectifying potassium channel KCNH2 (Homo sapiens) (UniProt Q12809)
Sequence (Q12809 whole entry, looked up): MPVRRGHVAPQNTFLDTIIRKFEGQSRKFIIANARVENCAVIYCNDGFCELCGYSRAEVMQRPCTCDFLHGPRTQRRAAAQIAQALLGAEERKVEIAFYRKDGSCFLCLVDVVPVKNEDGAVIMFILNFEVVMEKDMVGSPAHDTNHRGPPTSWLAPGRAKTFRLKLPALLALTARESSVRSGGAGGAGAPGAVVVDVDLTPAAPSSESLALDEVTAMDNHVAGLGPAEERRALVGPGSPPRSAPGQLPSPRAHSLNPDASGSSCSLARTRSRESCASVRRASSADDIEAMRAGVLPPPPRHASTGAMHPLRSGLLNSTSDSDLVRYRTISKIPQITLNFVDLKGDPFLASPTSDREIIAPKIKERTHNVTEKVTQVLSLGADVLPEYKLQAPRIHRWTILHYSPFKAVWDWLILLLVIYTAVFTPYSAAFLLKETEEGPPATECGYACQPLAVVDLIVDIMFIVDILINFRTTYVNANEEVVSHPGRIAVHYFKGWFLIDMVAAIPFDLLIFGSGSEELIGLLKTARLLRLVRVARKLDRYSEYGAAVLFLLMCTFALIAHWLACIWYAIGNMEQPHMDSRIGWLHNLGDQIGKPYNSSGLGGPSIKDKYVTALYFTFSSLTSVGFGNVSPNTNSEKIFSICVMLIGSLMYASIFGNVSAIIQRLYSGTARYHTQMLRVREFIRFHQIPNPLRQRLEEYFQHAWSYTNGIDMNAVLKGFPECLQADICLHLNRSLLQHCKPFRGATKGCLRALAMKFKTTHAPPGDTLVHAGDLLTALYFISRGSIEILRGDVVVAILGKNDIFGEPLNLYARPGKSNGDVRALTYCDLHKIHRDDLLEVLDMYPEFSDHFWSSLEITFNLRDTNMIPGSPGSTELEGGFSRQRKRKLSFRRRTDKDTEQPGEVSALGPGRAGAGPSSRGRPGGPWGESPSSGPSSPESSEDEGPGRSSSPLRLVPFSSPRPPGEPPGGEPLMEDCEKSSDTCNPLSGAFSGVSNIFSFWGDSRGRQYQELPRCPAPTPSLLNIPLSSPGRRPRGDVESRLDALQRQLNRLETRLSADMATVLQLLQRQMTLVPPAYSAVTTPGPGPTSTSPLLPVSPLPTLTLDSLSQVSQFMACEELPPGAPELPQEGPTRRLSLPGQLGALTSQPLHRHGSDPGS
measurement notes: qHTS Assay for Small Molecule Inhibitors of the Human hERG Channel Activity (AID 588834);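 note: lower thallium flux fluorescence means stronger hERG block; nearly all actives have a fitted effect of over 50% in size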
experimental context: U2OS BacMam hERG, FluxOR thallium flux fluorescence; series mostly up to 46.1 µM
Inconclusive results are not listed. Activity calls are given as the source filed them. Calls come from the whole dose curve; as a rule, active = well fitted inhibition curve with a large enough effect; inconclusive = small, poorly fitted or top-dose-only effect; inactive = flat fitted curve, though single readings scatter.
// classify into y = active, n = inactive

Consider the worked cases shown below.
compound: O=C(c1cc2ccccc2o1)N1CCN(Cc2ccccc2)CC1
study system: Voltage-gated inwardly rectifying potassium channel KCNH2 (Homo sapiens) (UniProt Q12809)
class: n
--
compound: ClC(Cl)Cl
study system: Voltage-gated inwardly rectifying potassium channel KCNH2 (Homo sapiens) (UniProt Q12809)
class: n
--
compound: CC[C@H]1OC(=O)C[C@@H](O)[C@H](C)[C@@H](O[C@@H]2O[C@H](C)[C@@H](O[C@H]3C[C@@](C)(O)[C@@H](O)[C@H](C)O3)[C@H](N(C)C)[C@H]2O)[C@@H](CC=O)C[C@@H](C)C(=O)/C=C/C(C)=C/[C@@H]1CO[C@@H]1O[C@H](C)[C@@H](O)[C@@H](OC)[C@H]1OC
study system: Voltage-gated inwardly rectifying potassium channel KCNH2 (Homo sapiens) (UniProt Q12809)
class: n
--
compound: N#Cc1ccc2c(c1)N(CCCN1CCC(O)CC1)c1ccccc1S2
study system: Voltage-gated inwardly rectifying potassium channel KCNH2 (Homo sapiens) (UniProt Q12809)
class: y
--
compound: CO/N=C(\C(=O)N[C@@H]1C(=O)N2C(C(=O)O)=C(CSc3nc(C)c(CC(=O)O)s3)CS[C@H]12)c1csc(N)n1
study system: Voltage-gated inwardly rectifying potassium channel KCNH2 (Homo sapiens) (UniProt Q12809)
class: n
--
compound: CCCOc1cc(N)ccc1C(=O)OCCN(CC)CC
study system: Voltage-gated inwardly rectifying potassium channel KCNH2 (Homo sapiens) (UniProt Q12809)
class: n
--
compound: NCCO/C=C/[C@H](N)C(=O)O
study system: Voltage-gated inwardly rectifying potassium channel KCNH2 (Homo sapiens) (UniProt Q12809)
class: n
--
compound: CC(C)(Oc1ccc(C2CCCc3ccccc32)cc1)C(=O)O (centres undefined)
study system: Voltage-gated inwardly rectifying potassium channel KCNH2 (Homo sapiens) (UniProt Q12809)
class: n

# next compound below
Lab log entry: "O=C(O)c1ccc(OCCn2ccnc2)cc1" — outcome as called in the assay? n

* * *

System: CP269
measurement notes: qHTS profiling for inhibitors of Plasmodium falciparum proliferation (AID 504749); note: nearly all actives have a fitted effect of over 60% in size
experimental context: P. falciparum in erythrocytes, SYBR Green DNA, 72 h; series mostly up to 28.7 µM
Inconclusive results are not listed. The source made the active and inactive calls. Calls come from the whole dose curve; as a rule, active = well fitted inhibition curve with a large enough effect; inconclusive = small, poorly fitted or top-dose-only effect; inactive = flat fitted curve, though single readings scatter.
// classify into active, inactive

Consider the worked cases shown below.
compound: COc1ccc(-c2noc(CC(=O)O)c2-c2ccc(OC)cc2)cc1
class: inactive
//
compound: CC(C)Cc1ccc([C@@H](C)C(=O)NS(C)(=O)=O)cc1
class: inactive

Lab log entry: "CCCCCCCCCCCC(=O)N(CCO)CCO" — outcome as called in the assay? inactive

Lab log entry: O=C(OC1C[C@@H]2CC3C[C@H](C1)N2CC3=O)c1c[nH]c2ccccc12 (some centres undefined) — outcome as called in the assay? inactive

Lab log entry: "C=Cc1ccc(S(=O)(=O)O)cc1" — outcome as called in the assay? inactive

* * *

measurement notes: Cell Viability - LYMP2-003 (AID 965);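 note: cells exposed to compounds for 24 h before reading; nearly all actives have a fitted effect of over 50% in size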
experimental context: LYMP2-003 lymphoblastoid cell viability; series mostly up to 92.2 µM
Results filed as inconclusive are left out. The source made the active and inactive calls. Calls follow the shape of the dose curve; as a rule, active = well fitted cell-killing curve with a large enough effect; inconclusive = small, poorly fitted or top-dose-only effect, or effect the other way; inactive = flat fitted curve, though single readings scatter.
// classify into y (active), n (inactive)

Consider the worked cases shown below.
compound: CO/N=C(/C(=O)N[C@@H]1C(=O)N2C(C(=O)O)=C(COC(N)=O)CS[C@H]12)c1ccco1
class: n
//
compound: NCCN
class: n
//
compound: CO
class: n
//
compound: c1ccc2ccccc2c1
class: n
//
compound: CC(C)O
class: n

Lab log entry: "C[C@H](CCC(=O)O)[C@H]1CC[C@H]2[C@@H]3CC[C@@H]4C[C@H](O)CC[C@]4(C)[C@H]3C[C@H](O)[C@]12C" — outcome as called in the assay? n

Lab log entry: "O=P(O)(O)O" — outcome as called in the assay? n

Lab log entry: "NC(N)=O" — outcome as called in the assay? n

Lab log entry: "CC1=CC(=O)NS(=O)(=O)O1" — outcome as called in the assay? n

* * *

Tested on: CP265
measurement notes: qHTS profiling for inhibitors of Plasmodium falciparum proliferation (AID 504749); note: nearly all actives have a fitted effect of over 60% in size
experimental context: P. falciparum in erythrocytes, SYBR Green DNA, 72 h; series mostly up to 28.7 µM
Results filed as inconclusive are left out. Calls of active or inactive are those of the source. Calls follow the shape of the dose curve; as a rule, active = well fitted inhibition curve with a large enough effect; inconclusive = small, poorly fitted or top-dose-only effect; inactive = flat fitted curve, though single readings scatter.
// classify into active, inactive

Consider the worked cases shown below.
structure smiles: O.O.O.O.O.O.O.O=S(=O)([O-])[O-].[Co+2]
class: active
//
structure smiles: O=C(O)[C@H]1CN(C/C=C/P(=O)(O)O)CCN1
class: inactive
//
structure smiles: CC(C)(C)CC(C)(C)c1ccc(OCCO)cc1
class: inactive
//
structure smiles: Cc1cc(C(=O)NCCc2ccc(S(=O)(=O)NC(=O)NN3CCCCCC3)cc2)no1
class: inactive

# next molecule below
Lab log entry: "CC(C)CCCCCCc1ccc(O)cc1" — outcome as called in the assay? inactive

* * *

System: ATS95
measurement notes: qHTS profiling for inhibitors of Plasmodium falciparum proliferation (AID 504749); note: nearly all actives have a fitted effect of over 60% in size
experimental context: P. falciparum in erythrocytes, SYBR Green DNA, 72 h; series mostly up to 28.7 µM
Results filed as inconclusive are left out. Activity calls are given as the source filed them. The call rests on the fitted dose curve; in most records, active means well fitted inhibition curve with a large enough effect; inconclusive means small, poorly fitted or top-dose-only effect; inactive means flat fitted curve, though single readings scatter.
quantity kind: outcome

structure smiles: CC(=O)Nc1c(I)c(C(=O)O)c(I)c(N(C)C(C)=O)c1I
outcome: inactive
//
structure smiles: O=C(O)/C=C/c1ccccc1
outcome: inactive
//
structure smiles: C[Si](C)(C)O[Si](C)(C)C
outcome: inactive
//
structure smiles: CC(=O)Oc1cc(C(F)(F)F)ccc1C(=O)O
outcome: inactive

Recorded outcome of "CC(C)Cc1ccc([C@@H](C)C(=O)NS(C)(=O)=O)cc1" , please. inactive

Recorded outcome of "CC(=O)Oc1cccc2c1C(=O)c1c(OC(C)=O)cc(C(=O)O)cc1C2=O" , please. inactive

* * *

Tested on: astro
measurement notes: Drug repurposing screens with cells derived from glioblastoma tumor samples (AID 1345199); note: nearly all actives have a fitted effect of over 40% in size
experimental context: viability, ATP luminescence, 48 h; series mostly up to 45.9 µM
Records with an inconclusive call do not appear. Calls of active or inactive are those of the source. The call rests on the fitted dose curve; in most records, active means well fitted inhibition curve with a large enough effect; inconclusive means small, poorly fitted or top-dose-only effect; inactive means flat fitted curve, though single readings scatter.
// classify into active, inactive

Consider the worked cases shown below.
compound: NC(N)=NCC1COC2(CCCCC2)O1 (stereo not given)
class: inactive
//
compound: N[C@@H](Cc1cc(I)c(Oc2ccc(O)c(I)c2)c(I)c1)C(=O)O
class: inactive
//
compound: CC12CCC(C1)C(C)(C)C2=O (stereo not given)
class: inactive
//
compound: CCCOC(=O)c1ccccc1O
class: inactive
//
compound: Cc1cc(C(=O)NCCc2ccc(S(=O)(=O)NC(=O)NN3CCCCCC3)cc2)no1
class: inactive
//
compound: Oc1cc(O)cc(O)c1
class: inactive

Lab log entry: "CCOC(=O)Oc1c(OC)cc(C(=O)O[C@@H]2C[C@@H]3CN4CCc5c([nH]c6cc(OC)ccc56)[C@H]4C[C@@H]3[C@H](C(=O)OC)[C@H]2OC)cc1OC" — outcome as called in the assay? inactive

Lab log entry: CC(O)[C@H]1CC[C@H]2[C@@H]3CC[C@@H]4C[C@@H](O)CC[C@]4(C)[C@H]3CC[C@]12C (stereo not given in full) — outcome as called in the assay? inactive

Lab log entry: CC(C)(C)c1ccc(CN2CCN(C(c3ccccc3)c3ccc(Cl)cc3)CC2)cc1 (stereo not given) — outcome as called in the assay? active

Lab log entry: "COc1ccc2c(=O)c(C)c(-c3ccccc3)oc2c1CN(C)C" — outcome as called in the assay? inactive
